pIC50: −log10 of the molar value.
// values below are pIC50; system is 11-beta-hydroxysteroid dehydrogenase 1 (Mus musculus)
Sequence (P50172 whole entry): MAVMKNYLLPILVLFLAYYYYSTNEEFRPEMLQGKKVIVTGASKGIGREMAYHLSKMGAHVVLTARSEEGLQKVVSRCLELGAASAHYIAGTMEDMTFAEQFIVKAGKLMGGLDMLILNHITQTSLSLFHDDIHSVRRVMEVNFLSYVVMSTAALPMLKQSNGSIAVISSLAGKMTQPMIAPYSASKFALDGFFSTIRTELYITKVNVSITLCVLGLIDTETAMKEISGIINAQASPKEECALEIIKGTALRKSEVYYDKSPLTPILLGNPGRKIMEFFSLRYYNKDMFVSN

>  <compound>
CC1(C)OC(N[C@@H](CCO)c2ccccc2)=NS(=O)(=O)C1(C)C

>  <pIC50>
6.63

$$$$
>  <compound>
CC1(C)CCC(N=C2NS(=O)(=O)[C@@H]3CCCC[C@@H]3O2)CC1 (racemic)

>  <pIC50>
6.34

$$$$
>  <compound>
CC1(C)OC(N[C@@H](CCO)c2cccc(C#N)c2)=NS(=O)(=O)C1(C)C

>  <pIC50>
6.96

$$$$
>  <compound>
O=S1(=O)N=C(NC23CCC(F)(CC2)CC3)O[C@H]2CCCC[C@H]21 (mixture of isomers)

>  <pIC50>
6.34

$$$$
>  <compound>
O=S1(=O)N=C(N[C@@H](CCO)c2ccccc2)O[C@H]2CCCC[C@H]21 (mixture of isomers)

>  <pIC50>
7.80

$$$$
>  <compound>
CC1(C)OC(N[C@@H](CCO)c2ccc(F)cc2)=NS(=O)(=O)C1(C)C

>  <pIC50>
6.70

$$$$
>  <compound>
O=S1(=O)N=C(NC23CCC(O)(CC2)CC3)O[C@H]2CCCC[C@H]21 (mixture of isomers)

>  <pIC50>
6.16

$$$$
>  <compound>
O=S1(=O)N=C(NC2CCCCCC2)O[C@H]2CCCC[C@H]21 (racemic)

>  <pIC50>
7.06

$$$$
>  <compound>
O=S1(=O)NC(=NC23CCC(CC2)CC3)O[C@H]2CCCC[C@H]21

>  <pIC50>
6.56

$$$$
>  <compound>
O=S1(=O)N=C(NC2CCCCC2)OC2(CCC2)C12CC2

>  <pIC50>
6.09

$$$$
>  <compound>
O=S1(=O)NC(=NC23CC4CC(CC(C4)C2)C3)O[C@H]2CCCC[C@H]21

>  <pIC50>
7.40

$$$$
>  <compound>
CC(C)(NC1=NS(=O)(=O)[C@@H]2CCCC[C@@H]2O1)c1ccccc1 (mixture of isomers)

>  <pIC50>
6.35

$$$$
>  <compound>
O=S1(=O)NC(=NC23CC4CC(CC(O)(C4)C2)C3)O[C@H]2CCCC[C@H]21 (mixture of isomers)

>  <pIC50>
6.40

$$$$
>  <compound>
O=S1(=O)NC(=N[C@@H](CO)c2ccccc2)O[C@H]2CCCC[C@H]21 (mixture of isomers)

>  <pIC50>
6.82

$$$$
>  <compound>
O=S1(=O)NC(=NCC2CCCCC2)O[C@H]2CCCC[C@H]21 (racemic)

>  <pIC50>
6.14

$$$$
>  <compound>
CCC1OC(NC2CCCCC2)=NS(=O)(=O)C12CC2 (stereo unspecified)

>  <pIC50>
5.60

$$$$

----------
// values below are IC50; system is 11-beta-hydroxysteroid dehydrogenase 1 (Homo sapiens, UniProt P28845)
Sequence (P28845 whole entry): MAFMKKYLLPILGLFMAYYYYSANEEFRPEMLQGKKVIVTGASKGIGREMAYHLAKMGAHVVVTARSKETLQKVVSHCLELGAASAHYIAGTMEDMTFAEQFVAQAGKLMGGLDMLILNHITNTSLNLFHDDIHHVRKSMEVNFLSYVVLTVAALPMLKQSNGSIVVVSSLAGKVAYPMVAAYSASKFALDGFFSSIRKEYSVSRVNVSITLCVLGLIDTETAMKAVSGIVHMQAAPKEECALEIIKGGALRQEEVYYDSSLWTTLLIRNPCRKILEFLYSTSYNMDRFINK

>  <molecule>
O=S1(=O)NC(=NC2CCCCC2)O[C@@H]2CCNC[C@H]21 (racemic)

>  <assayed-system>
11-beta-hydroxysteroid dehydrogenase 1 (Homo sapiens, UniProt P28845)

>  <IC50>
> 2250 nM

$$$$
>  <molecule>
O=S1(=O)N=C(NC2CCCCC2)O[C@H]2CCNC[C@H]21 (racemic)

>  <assayed-system>
11-beta-hydroxysteroid dehydrogenase 1 (Homo sapiens, UniProt P28845)

>  <IC50>
> 2250 nM

$$$$
>  <molecule>
CN1CC[C@@H]2OC(=NC3CCCCC3)NS(=O)(=O)[C@@H]2C1 (racemic)

>  <assayed-system>
11-beta-hydroxysteroid dehydrogenase 1 (Homo sapiens, UniProt P28845)

>  <IC50>
> 2250 nM

$$$$

Data credit: ChEMBL document CHEMBL2407060
